tested_on: ZIKV envelope glycoprotein (E) of strain FLR (Colombia 2015) (Zika virus)
protocol_description: cell-based or functional assay
# neutralization IC50, Vero cells per entry
reported_endpoint: neutralization IC50, Vero cells (nM)

INSERT INTO measurements (binder, measurement) VALUES
  ('H4H25637P (antibody, V domains shown) VH: QLQLQESGPGLVKPSETLSLTCTVSGDSISSSNYFWGWIRQPPGKGLEWIGNIYYSGDTYYNPSLKSRVTMSVDTSKKQFSLKLRSVTAADTAVYYCARGRPYYDFWSGYFDYWGQGTLVTVSS VL: EIVLTQSPGTLSLSPGERATLPCRASQSVSSSYLAWYQQKPGQAPRLLIYGASSRATGIPDRFRGSGSGTDFTLTISRLEPEDFAVYYCQQYGTAPWTFGQGTKVEIK', 0.134),
  ('H4H25587P (antibody, V domains shown) VH: EVQLVESGGGLVQPGRSLTLSCAASGFTFDDYVMHWVRQAPGKGLEWVSGISWNSDTIDYADSVKGRFTISRDNAKNSLYLQMNSLRAEDTALYYCAKDRRSWYGGYFDYWGQGTLVTVSS VL: DIQMTQSPSSLSASVGDRVTITCRASQGISSYLAWYQQKPGKVPKLLIYAASTLQSGVPSRFSGSGSGTDFSLTISSLQPEDVATYYCQKYNSAPLTFGGGTKVEIK', 0.955);
